experiment: Binding affinity at Sigma receptor type 1, displacement of [3H](+)-pentazocine from guinea pig brain membranes
Entries whose Ki is below 20 nM take YES; entries at or above 20 nM take NO.

{"chemicalStructure": "C[C@@H]1[C@@H]2Cc3ccc(O)cc3[C@@]1(C)CCN2Cc1ccc(I)c([N+](=O)[O-])c1", "assignedCategory": "NO"}
{"chemicalStructure": "C[C@@H]1[C@@H]2Cc3ccc(O)cc3[C@@]1(C)CCN2Cc1ccc(F)cc1", "assignedCategory": "YES"}
{"chemicalStructure": "C[C@@H]1[C@@H]2Cc3ccc(O)cc3[C@@]1(C)CCN2Cc1ccc(Br)cc1", "assignedCategory": "YES"}
{"chemicalStructure": "C[C@@H]1[C@@H]2Cc3ccc(O)cc3[C@@]1(C)CCN2Cc1ccccc1I", "assignedCategory": "NO"}
{"chemicalStructure": "C[C@@H]1[C@@H]2Cc3ccc(O)cc3[C@@]1(C)CCN2Cc1ccc(N)cc1", "assignedCategory": "YES"}
{"chemicalStructure": "C[C@@H]1[C@@H]2Cc3ccc(O)cc3[C@@]1(C)CCN2Cc1ccccc1F", "assignedCategory": "YES"}
{"chemicalStructure": "COc1ccc(CN2CC[C@]3(C)c4cc(O)ccc4C[C@H]2[C@H]3C)cc1", "assignedCategory": "YES"}
{"chemicalStructure": "C[C@@H]1[C@@H]2Cc3ccc(O)cc3[C@@]1(C)CCN2Cc1ccc(Cl)cc1", "assignedCategory": "YES"}
{"chemicalStructure": "C[C@@H]1[C@@H]2Cc3ccc(O)cc3[C@@]1(C)CCN2Cc1ccc(N(C)C)cc1", "assignedCategory": "NO"}
{"chemicalStructure": "C[C@@H]1[C@@H]2Cc3ccc(O)cc3[C@@]1(C)CCN2Cc1ccc(C#N)cc1", "assignedCategory": "YES"}
{"chemicalStructure": "Cc1ccccc1CN1CC[C@]2(C)c3cc(O)ccc3C[C@H]1[C@H]2C", "assignedCategory": "YES"}
{"chemicalStructure": "Cc1ccc(CN2CC[C@]3(C)c4cc(O)ccc4C[C@H]2[C@H]3C)cc1", "assignedCategory": "YES"}
{"chemicalStructure": "C[C@@H]1[C@@H]2Cc3ccc(O)cc3[C@@]1(C)CCN2Cc1cccc(I)c1", "assignedCategory": "NO"}
{"chemicalStructure": "C[C@@H]1[C@@H]2Cc3ccc(O)cc3[C@@]1(C)CCN2Cc1ccc(I)cc1", "assignedCategory": "YES"}
{"chemicalStructure": "C[C@@H]1[C@@H]2Cc3ccc(O)cc3[C@@]1(C)CCN2Cc1ccc([N+](=O)[O-])cc1", "assignedCategory": "YES"}
{"chemicalStructure": "CC(=O)Nc1ccc(CN2CC[C@]3(C)c4cc(O)ccc4C[C@H]2[C@H]3C)cc1", "assignedCategory": "NO"}
{"chemicalStructure": "C[C@@H]1[C@@H]2Cc3ccc(O)cc3[C@@]1(C)CCN2Cc1ccc(C(C)(C)C)cc1", "assignedCategory": "NO"}

Taken from BindingDB's records for doi:10.1021/jm00003a019.
